Assay: Stability in human plasma
Details: after 4 hours, 37° C.
# residual percentage in HUMAN PLASMA annotations
Response body: numeric value in %, unit text excluded.

*Q* What residual percentage in HUMAN PLASMA value was documented for this compound, O=C1NCc2ccc(-c3cn(Cc4ccc(-c5nnc(C(F)F)o5)cc4)nn3)cc21 ?
*A* 89

*Q* What about O=C1Nc2cc(-c3cn(Cc4ccc(-c5nnc(C(F)F)o5)cn4)nn3)ccc2NC12CCNCC2 ?
*A* 91

More entries:
*Q* Return reported residual percentage in HUMAN PLASMA; argument: Nc1ccc(-c2nnc(Cc3ccc(-c4nnc(C(F)F)o4)cc3)o2)cn1
*A* 92

*Q* CN1CCN(C(=O)Nc2cccc(-c3cn(Cc4ccc(-c5nnc(C(F)F)o5)cn4)nn3)c2)CC1 , same question.
*A* 90

*Q* Then Cc1ncc(-c2nnn(Cc3ccc(-c4nnc(C(F)F)o4)cc3)n2)cc1N ?
*A* 94

*Q* Another compound: CC(c1ccc(-c2nnc(C(F)F)o2)cn1)n1cc(-c2ccc(N)nc2)nn1 (centres unmarked)
*A* 87

*Q* Another compound to check: Nc1nc2ccc(-c3cn(Cc4ccc(-c5nnc(C(F)F)o5)cc4)nn3)cc2s1
*A* 72

*Q* Same read-out for Nc1ccc(-c2nc(Cc3ccc(-c4nnc(C(F)F)o4)cc3)no2)cn1 ?
*A* 99

* * *

Target: recombinant human HDAC1 (Homo sapiens (Human), UniProt Q13547)
Sequence (Q13547 whole entry): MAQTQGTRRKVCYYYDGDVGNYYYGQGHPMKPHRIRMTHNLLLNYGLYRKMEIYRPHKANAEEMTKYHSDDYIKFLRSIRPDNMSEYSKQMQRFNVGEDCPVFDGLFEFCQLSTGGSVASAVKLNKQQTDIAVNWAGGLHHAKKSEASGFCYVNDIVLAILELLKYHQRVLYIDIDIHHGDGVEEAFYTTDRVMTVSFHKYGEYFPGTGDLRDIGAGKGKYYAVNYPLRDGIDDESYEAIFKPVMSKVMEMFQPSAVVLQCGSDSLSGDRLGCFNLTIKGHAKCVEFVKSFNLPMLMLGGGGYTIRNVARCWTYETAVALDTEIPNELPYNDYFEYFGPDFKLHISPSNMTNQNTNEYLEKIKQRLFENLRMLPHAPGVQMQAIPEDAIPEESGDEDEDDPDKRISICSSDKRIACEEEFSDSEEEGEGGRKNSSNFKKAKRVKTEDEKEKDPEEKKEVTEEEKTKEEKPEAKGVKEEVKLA
Experiment: Enzymatic screening, HDAC1 inhibition (fluorogenic FdL_G substrate)
pIC50: −log10 of the molar value.
observedProperty: pIC50

*Q* Lab note: need pIC50 with recombinant human HDAC1 (Homo sapiens (Human), UniProt Q13547) for entry O=C(Nc1cccc(-c2cn(Cc3ccc(-c4nnc(C(F)F)o4)c(F)c3)nn2)c1)N1CCOCC1 , please look it up.
*A* < 3.70

*Q* Also need Nc1nc2cc(-c3cn(Cc4ccc(-c5nnc(C(F)F)o5)cc4)cn3)ccc2o1 , thanks.
*A* < 3.00

*Q* For Nc1nc2ccc(-c3cn(Cc4cc(F)c(-c5nnc(C(F)F)o5)cc4F)nn3)cc2s1 then?
*A* < 3.00

*Q* Next compound: CNc1ccc2cc(-c3cn(Cc4ccc(-c5nnc(C(F)F)o5)cc4)nn3)ccc2n1
*A* < 3.70

*Q* Another compound to check: CNc1ncc2cc(-c3cn(Cc4cc(F)c(-c5nnc(C(F)F)o5)cc4F)nn3)ccc2n1
*A* 3.00

*Q* Please give the result for CCNc1nc2ccc(-c3cn(Cc4ccc(-c5nnc(C(F)F)o5)cc4)nn3)cc2[nH]1 too.
*A* 4.48

---
*Q* What reported pIC50 corresponds to CCC[C@@H](c1ccc(-c2nnc(C(F)F)o2)cc1)n1cc(-c2ccc(N)nc2)nn1 (stereo in doubt) [compound 193] on recombinant human HDAC1 (Homo sapiens (Human), UniProt Q13547)?
*A* < 3.70

*Q* What about this compound? Nc1nc2ccc(-c3cn(Cc4ccc(-c5nnc(C(F)F)o5)cn4)nn3)cc2[nH]1
*A* < 3.70

*Q* What do you get for Fc1cc(-c2nnc(C(F)F)o2)cnc1Cn1nnc(-c2cccc(-c3nc4c([nH]3)CCNC4)c2)n1 ?
*A* < 3.00

*Q* Let us now turn to CC[C@H](c1ccc(-c2nnc(C(F)F)o2)cc1)n1cc(-c2ccc(N)nc2)nn1 (stereo in doubt)
*A* < 3.70

*Q* For CN(Cc1ccc(-c2nc(Cc3c(F)cc(-c4nnc(C(F)F)o4)cc3F)no2)cc1)C(=O)C(F)F then?
*A* < 3.70

* * *

Biological target: recombinant human HDAC1 (Homo sapiens (Human), UniProt Q13547)
Test: Enzymatic screening, HDAC1 inhibition (fluorogenic FdL_G substrate)
pIC50: −log10 of the molar value.
observedProperty: pIC50

*Q* Which pIC50 reading was recorded for the compound O=C(NCc1ccco1)c1cccc(-c2nnn(Cc3ccc(-c4nnc(C(F)F)o4)cc3)n2)c1 ?
*A* < 3.70

Others:
*Q* Could you tell me which pIC50 is on file for CCNc1nc2ccc(-c3cn(Cc4ccc(-c5nnc(C(F)F)o5)cn4)nn3)cc2[nH]1 ?
*A* < 3.70

*Q* Field entry: O=C(Nc1cc(-c2nnn(Cc3ccc(-c4nnc(C(F)F)o4)cc3)n2)ccc1O)N1CCOCC1
*A* < 3.70

*Q* What would you report for Cn1c(N)nc2ccc(-c3cn(Cc4ccc(-c5nnc(C(F)F)o5)cc4)nn3)cc21 ?
*A* < 3.70

*Q* What about Nc1nc2ccc(-c3cc(Cc4ccc(-c5nnc(C(F)F)o5)cc4)on3)cc2s1 ?
*A* < 3.00

*Q* Please give the result for FC(F)c1nnc(-c2ccc(Cn3nnc(-c4ccc5cnccc5c4)n3)c(Cl)c2)o1 too.
*A* 3.00

* * *

Dear all, this message contains IC50 results, target or system HDAC9 (Homo sapiens (Human), UniProt Q9UKV0).

For orientation, consider the following solved cases.
*Q* Item under review: O=C(Nc1cccc(-c2cn(Cc3ccc(-c4nnc(C(F)F)o4)cn3)nn2)c1)N1CCOCC1 . Reported IC50?
*A* > 30 µM

*Q* // repeat for CCNc1nc2ccc(-c3cn(Cc4ccc(-c5nnc(C(F)F)o5)cn4)nn3)cc2[nH]1 and report
*A* > 30 µM

*Q* And for FC(F)c1nnc(-c2ccc(Cn3cc(-c4ccc5nc(Cl)[nH]c5c4)nn3)nc2)o1 ?
*A* 0.971 µM

Switching to the query record.
*Q* Using the record for Cn1c(N)nc2cc(-c3cn(Cc4ccc(-c5nnc(C(F)F)o5)cn4)nn3)ccc21 , report its IC50.
*A* > 30 µM

* * *

Target: recombinant human HDAC1 (Homo sapiens (Human))
Experiment: Enzymatic screening, HDAC1 inhibition (fluorogenic FdL_G substrate)
observedProperty: IC50

Observe how each entry below is paired with its result.
*Q* Please state recorded IC50 (tested on recombinant human HDAC1 (Homo sapiens (Human))) of Nc1cc2cc(-c3cn(Cc4ccc(-c5nnc(C(F)F)o5)cc4F)nn3)ccc2cn1 [compound 405]
*A* 1000 µM

*Q* Another: FC(F)c1nnc(-c2ccc(Cn3cc(-c4ccc5nc(Cl)[nH]c5c4)nn3)cc2)o1 [compound 136]
*A* > 200 µM

*Q* # repeat for Nc1cncc(-c2cn(Cc3c(F)cc(-c4nnc(C(F)F)o4)cc3F)nn2)c1 [compound 73]
*A* > 200 µM

***
*Q* So what IC50 did O=C(Nc1cc(-c2nnn(Cc3ccc(-c4nnc(C(F)F)o4)cn3)n2)ccc1O)N1CCOCC1 [compound 2] get with recombinant human HDAC1 (Homo sapiens (Human))?
*A* > 200 µM

* * *

Experiment: Stability to Phase I metabolism in rat S9 liver fraction
Settings: after 90 minutes, 37° C.
Decide using residual percentage in RAT S9 FRACTION alone. Strictly below 90%: 1 (yes). Equal to or above 90%: 0 (no).

Examples with answers:
*Q* State whether 90% exceeds residual percentage in RAT S9 FRACTION recorded for Nc1nc2ccc(-c3cn(Cc4ccc(-c5nnc(C(F)F)o5)cc4)nn3)cc2s1 [compound 14] .
*A* 0 (no)

*Q* Now the compound O=C1Nc2ccc(-c3cn(Cc4ccc(-c5nnc(C(F)F)o5)cn4)nn3)cc2[C@@]12CCNC2 (single isomer, unassigned) [compound 273]
*A* 0 (no)

*Q* What about Nc1nc2cc(-c3nnn(Cc4ccc(-c5nnc(C(F)F)o5)cn4)n3)ccc2o1 [compound 7] ?
*A* 0 (no)

*Q* Input CCC[C@H](c1ccc(-c2nnc(C(F)F)o2)cc1)n1cc(-c2ccc(N)nc2)nn1 [compound 143]
*A* 1 (yes)

*Q* And CCNC(=O)c1cccc(-c2nnn(Cc3ccc(-c4nnc(C(F)F)o4)cc3)n2)c1 [compound 91] ?
*A* 1 (yes)

*Q* And CNc1ccc2cc(-c3cn(Cc4ccc(-c5nnc(C(F)F)o5)cn4)nn3)ccc2n1 [compound 34] ?
*A* 1 (yes)

More entries:
*Q* Please state whether residual percentage in RAT S9 FRACTION is below 90% for Nc1ncnc2cc(-c3cn(Cc4ccc(-c5nnc(C(F)F)o5)cc4)nn3)ccc12 [compound 84]
*A* 1 (yes)

*Q* What do you have for CCC[C@@H](c1ccc(-c2nnc(C(F)F)o2)cc1)n1cc(-c2ccc(N)nc2)nn1 (stereo in doubt) [compound 193] ?
*A* 1 (yes)

*Q* Then Cc1ncc(-c2nnn(Cc3ccc(-c4nnc(C(F)F)o4)cc3)n2)cc1N [compound 65] ?
*A* 1 (yes)

*Q* Try the compound CS(=O)(=O)NCCC(c1ccc(-c2nnc(C(F)F)o2)cc1)c1cn(-c2ccc(N)nc2)nn1 (stereo not shown) [Compd. 62]
*A* 1 (yes)

*Q* Also need C[C@@H](c1ccc(-c2nnc(C(F)F)o2)cc1)n1cc(-c2ccc(N)nc2)nn1 [compound 255] , thanks.
*A* 1 (yes)

*Q* Param item: CCNc1ccc(-c2nnn(Cc3ccc(-c4nnc(C(F)F)o4)cc3)n2)cn1 [compound 99]
*A* 1 (yes)

*Q* Query Nc1ccc(-c2cn(Cc3cc(F)c(-c4nnc(C(F)F)o4)cc3F)nn2)cn1 [compound 39] next
*A* 0 (no)

Source: patent US20230286970A1
